methodNotes: Human HepG2 cell viability assay in 384 well format
Assay type: toxicity, cell-based
Parameters: dose 125 nL, time 70.5 hour; concentration not given beside the values
conditionLabel: HepG2 cells, read-out: Inhibition
measuredQuantity: cytotoxicity at 70.5 h (%)
Report as a plain number; the unit % is understood.

Query: Recorded cytotoxicity at 70.5 h for O=C1CCC(c2ccc(Cl)cc2)=NN1CN1CCCCCC1 , please?
Response: -4.16

Query: Same read-out for Cc1cc(C)nc(NC2CCC(=O)N(C)C2)n1 (stereo unspecified) ?
Response: -8.23

Query: What about this compound? O=C1NCCO[C@H]2CN(C(=O)Cc3csc4ccccc34)CC[C@@H]12
Response: -8.16

Query: Same thing, different compound: CCC(CNC(=O)c1ccco1)N1CCc2ccccc2C1 (stereo unspecified)
Response: -12.8

Query: Try this compound too: CCNc1cc2c(nn1)CCN(C(=O)c1cc3c(s1)CCOC3)C2
Response: -9.07

Query: What would you report for CC(c1ccccc1Cl)N(C(=O)CSCC(N)=O)C1CC1 (stereo unspecified) ?
Response: 12.5

Query: Then CC(=O)N1CCC(c2cccc(-c3cccc(C(=O)O)c3)n2)CC1 ?
Response: -0.201

Query: Thanks! And Cc1cccc(C(C(=O)NCc2nc(-c3cccnc3)no2)N(C)C)c1 (stereo unspecified) ?
Response: 19.5

---
Query: Look up cytotoxicity at 70.5 h for this compound: Cc1cc(C)n(CC2CCCN2Cc2ncc(C(C)(C)C)o2)n1 (stereo unspecified)
Response: -5.22

Query: Please give the result for O[C@@]1(CN2CCN(Cc3ccncc3)CC2)CCCN2CCCC[C@@H]21 too.
Response: -9.72

Query: // same read-out, input: O=C(c1cccnc1)N1C[C@@H]2CC[C@H](C1)N(Cc1cccc(Cl)c1F)C2
Response: -1.34

---

methodNotes: Human HepG2 cell viability assay in 384 well format
Type: toxicity, cell-based
Parameters: dose 125 nL, time 70.5 hour; concentration not given beside the values
conditionLabel: HepG2 cells, read-out: Inhibition
measuredQuantity: cytotoxicity at 70.5 h (%)
# value in %; strip the unit string

Query: I would be grateful if you could share the reported cytotoxicity at 70.5 h for Cn1cc(CN2CCO[C@H]3CN(Cc4ccco4)C[C@H]32)cn1 .
Response: -2.62

Query: Then what about the compound CN(C)CCOc1ccc(CNC(=O)c2cccc(Cl)c2Cl)cc1 ?
Response: 8.38

Query: Same for O=C(Cc1ccsc1)N1CCn2cc(Cn3cncn3)nc2C1
Response: 2.98

Continuing:
Query: Look up cytotoxicity at 70.5 h for this compound: CC1CCCN(C(=O)c2csc(S(N)(=O)=O)c2)CC1 (centres undefined)
Response: -1.03

---

methodNotes: Human HepG2 cell viability assay in 384 well format
Format: toxicity, cell-based
Design: dose 125 nL, time 70.5 hour; concentration not given beside the values
conditionLabel: HepG2 cells, read-out: Inhibition
measuredQuantity: cytotoxicity at 70.5 h (%)
Number only, in %; omit the unit.

Query: Would you kindly share the measured cytotoxicity at 70.5 h for O=C(c1cc[nH]n1)N1CCC(Nc2cccnn2)CC1 ?
Response: 14.8

Query: Please do the same for Cc1cc(C(=O)N2CCc3c(ncnc3N3CCOCC3)C2)[nH]n1 as well.
Response: -1.64

Query: Queued: Cc1ccsc1C(Cn1ccnc1-c1ccccc1C(=O)O)N(C)C (stereo not given)
Response: 19.1

Query: Now try COc1ncccc1CNC(=O)N(Cc1ccccc1F)C1CC1 .
Response: -0.0541

Could you now look at the following molecule, please?
Query: Quick check: cytotoxicity at 70.5 h of CCc1noc(C)c1C(=O)N1CCCC1Cn1cccn1 (stereo not given) ?
Response: -3.75
